Cited source for all entries: patent US6472418B1

target: Human NK1 Receptor (Homo sapiens); construct: endogenous in cells; host or cells: Human lymphoma IM9 cells (whole cells); assay: In Vitro Human NK1 Receptor Binding Assay ([125I]Bolton-Hunter substance P displacement, IM9 cells); settings: human NK1 receptor, IM9 cells, [125I]Bolton-Hunter substance P; read-out: IC50 (nM) hNK1
Measured IC50, listed per entry.

// worked examples, IC50 included
- compound: "CC(Cc1c[nH]c2ccccc12)(NCc1cc2ccccc2o1)C(=O)NC(CO)c1ccccc1 (stereo not drawn)"
  IC50: "7 nM"
- compound: "CC(NC(=O)C(C)(Cc1c[nH]c2ccccc12)NCc1cc2ccccc2o1)c1ccc(Cl)s1 (stereo not drawn)"
  IC50: "45 nM"
- compound: "CC(Cc1c[nH]c2ccccc12)(NCc1cc2ccccc2o1)C(=O)NCc1cccc(C(F)(F)F)c1 (stereo not drawn)"
  IC50: "12 nM"
- compound: "CC(Cc1c[nH]c2ccccc12)(NCc1cc2ccccc2o1)C(=O)NCc1ccccc1F (stereo not drawn)"
  IC50: "266 nM"
- compound: "CC(Cc1c[nH]c2ccccc12)(NCc1cc2ccccc2o1)C(=O)NCCc1ccccc1 (stereo not drawn)"
  IC50: "262 nM"
- compound: "CC(Cc1c[nH]c2ccccc12)(NCc1cc2ccccc2o1)C(=O)NCC1Cc2ccccc2CN1 (stereo not drawn)"
  IC50: "4570 nM"

Quick check: IC50 of CN(C)c1cccc(C2(CNC(=O)C(C)(Cc3c[nH]c4ccccc34)NCc3cc4ccccc4o3)CCCC2)c1 (stereo not drawn) ?
> 10000 nM

Can you check CC(Cc1c[nH]c2ccccc12)(NCc1cc2ccccc2o1)C(=O)NCCCN1CCOCC1 (stereo not drawn) next?
> 10000 nM

Can you check CC(Cc1c[nH]c2ccccc12)(NCc1cc2ccccc2o1)C(=O)NCc1ccc(F)c(F)c1 (stereo not drawn) next?
29 nM

Can you check CC(Cc1c[nH]c2ccccc12)(NCc1cc2ccccc2o1)C(=O)NCC1CCCCC1O (stereo not drawn) [compound 184] next?
> 10000 nM

Can you check CC(NC(=O)C(C)(Cc1c[nH]c2ccccc12)NCc1cc2ccccc2o1)c1ccc(Cl)cc1 (stereo not drawn) next?
17 nM

Can you check CC(NC(=O)C(C)(Cc1c[nH]c2ccccc12)NCc1cc2ccccc2o1)c1cccc2ccccc12 (stereo not drawn) [compound 31] next?
> 10000 nM

Can you check CC(Cc1c[nH]c2ccccc12)(NCc1cc2ccccc2o1)C(=O)NCc1c(N)cccc1F (stereo not drawn) next?
6420 nM

Can you check CC(Cc1c[nH]c2ccccc12)(NCc1cc2ccccc2o1)C(=O)NCCN1CCNC1=S (stereo not drawn) next?
6030 nM

Can you check CC(Cc1c[nH]c2ccccc12)(NCc1cc2ccccc2o1)C(=O)NCc1ccc(Cl)cc1Cl (stereo not drawn) next?
1560 nM

Can you check CC(Cc1c[nH]c2ccccc12)(NCc1cc2ccccc2o1)C(=O)NCC1CCNC1 (stereo not drawn) next?
> 10000 nM

Can you check CC(Cc1c[nH]c2ccccc12)(NCc1cc2ccccc2o1)C(=O)NCc1ccccc1O (stereo not drawn) next?
84 nM

Can you check CC(Cc1c[nH]c2ccccc12)(NCc1cc2ccccc2o1)C(=O)NCc1ccco1 (stereo not drawn) next?
191 nM

Can you check CC(Cc1c[nH]c2ccccc12)(NCc1cc2ccccc2o1)C(=O)NCC1(O)CCCCC1 (stereo not drawn) next?
> 10000 nM

Can you check CC(Cc1c[nH]c2ccccc12)(NCc1cc2ccccc2o1)C(=O)NCCn1cccc1 (stereo not drawn) next?
654 nM

Can you check Cc1ccc(CNC(=O)C(C)(Cc2c[nH]c3ccccc23)NCc2cc3ccccc3o2)cc1 (stereo not drawn) next?
144 nM

Can you check CC(Cc1c[nH]c2ccccc12)(NCc1cc2ccccc2o1)C(=O)NCC(C)(C)N1CCCCC1 (stereo not drawn) next?
> 10000 nM

Can you check CC(Cc1c[nH]c2ccccc12)(NCc1cc2ccccc2o1)C(=O)NCC(c1ccccc1)c1ccccn1 (stereo not drawn) next?
> 10000 nM

Can you check COc1cccc(CNC(=O)C(C)(Cc2c[nH]c3ccccc23)NCc2cc3ccccc3o2)c1 (stereo not drawn) next?
643 nM

---

molecular target: Human NK1 Receptor (Homo sapiens); construct: endogenous in cells; host or cells: Human lymphoma IM9 cells (whole cells); assay: In Vitro Human NK1 Receptor Binding Assay ([125I]Bolton-Hunter substance P displacement, IM9 cells); details: human NK1 receptor, IM9 cells, [125I]Bolton-Hunter substance P; read-out: IC50 (nM) hNK1
So basically, if IC50 comes in under 400 nM it's yes, and if it's 400 nM or more it's no.

- molecule: "CC(Cc1c[nH]c2ccccc12)(NCc1cc2ccccc2o1)C(=O)NCC1(c2ccccc2)OCCO1 (centres unmarked)"
  discrete-label: "no"
- molecule: "CC(NC(=O)C(C)(Cc1c[nH]c2ccccc12)NCc1cc2ccccc2o1)c1ccc(N)cc1 (centres unmarked)"
  discrete-label: "yes"
- molecule: "CC(Cc1c[nH]c2ccccc12)(NCc1cc2ccccc2o1)C(=O)NCc1nc2ccccc2[nH]1 (centres unmarked)"
  discrete-label: "yes"
- molecule: "CC(Cc1c[nH]c2ccccc12)(NCc1cc2ccccc2o1)C(=O)NCCN1CCOCC1 (centres unmarked)"
  discrete-label: "no"
- molecule: "COc1ccc(CNC(=O)C(C)(Cc2c[nH]c3ccccc23)NCc2cc3ccccc3o2)cc1 (centres unmarked)"
  discrete-label: "yes"

Please indicate whether the reported IC50 of CC(Cc1c[nH]c2ccccc12)(NCc1cc2ccccc2o1)C(=O)NCc1cccc(N)c1 (centres unmarked) is strictly below 400 nM.
no

Can you check CC(CN1CCCC1=O)NC(=O)C(C)(Cc1c[nH]c2ccccc12)NCc1cc2ccccc2o1 (centres unmarked) next?
no

Can you check CC(Cc1c[nH]c2ccccc12)(NCc1cc2ccccc2o1)C(=O)NCc1ccccc1 (centres unmarked) next?
yes

Can you check CC(Cc1c[nH]c2ccccc12)(NCc1cc2ccccc2o1)C(=O)NCc1cc(Br)ccc1O (centres unmarked) next?
no

Can you check CC(Cc1c[nH]c2ccccc12)(NCc1cc2ccccc2o1)C(=O)NC1CCCCC1 (centres unmarked) next?
no

Can you check CC(Cc1c[nH]c2ccccc12)(NCc1cc2ccccc2o1)C(=O)NCC(CC(=O)O)c1ccccc1 (centres unmarked) next?
no

Can you check CC(Cc1c[nH]c2ccccc12)(NCc1cc2ccccc2o1)C(=O)NCc1ccc(O)c(O)c1 (centres unmarked) next?
no

Can you check CC(Cc1c[nH]cn1)NC(=O)C(C)(Cc1c[nH]c2ccccc12)NCc1cc2ccccc2o1 (centres unmarked) next?
no

---

Measured IC50, listed per entry.
target: Human NK1 Receptor (Homo sapiens, UniProt P25103); construct: endogenous in cells; host or cells: Human lymphoma IM9 cells (whole cells); experiment: In Vitro Human NK1 Receptor Binding Assay ([125I]Bolton-Hunter substance P displacement, IM9 cells); conditions: Table 4; [125I]Bolton-Hunter substance P displacement, human IM9 cells; read-out: IC50 (nM) hNK1
Sequence (P25103 whole entry): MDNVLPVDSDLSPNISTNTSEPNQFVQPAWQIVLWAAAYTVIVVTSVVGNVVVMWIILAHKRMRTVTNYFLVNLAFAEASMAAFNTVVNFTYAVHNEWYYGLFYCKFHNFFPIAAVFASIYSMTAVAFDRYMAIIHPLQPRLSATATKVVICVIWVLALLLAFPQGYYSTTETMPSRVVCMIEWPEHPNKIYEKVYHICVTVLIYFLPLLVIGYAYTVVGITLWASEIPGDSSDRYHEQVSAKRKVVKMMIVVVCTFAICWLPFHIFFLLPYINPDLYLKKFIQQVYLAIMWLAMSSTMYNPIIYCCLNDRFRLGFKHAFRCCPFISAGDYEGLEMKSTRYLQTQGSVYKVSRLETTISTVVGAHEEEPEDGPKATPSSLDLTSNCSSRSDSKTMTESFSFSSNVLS

- molecule: "CC(NC(=O)C(C)(Cc1c[nH]c2ccccc12)NCc1ccc(C=Cc2ccccc2)cc1)c1ccccc1 (stereo not drawn)"
  experimental-target: "Human NK1 Receptor (Homo sapiens, UniProt P25103)"
  quantity-measured: "IC50"
  experimental-result: "> 10000 nM"
- molecule: "CC(NC(=O)C(C)(Cc1c[nH]c2ccccc12)NCc1ccc(Oc2ccccc2)cc1)c1ccccc1 (stereo not drawn)"
  experimental-target: "Human NK1 Receptor (Homo sapiens, UniProt P25103)"
  quantity-measured: "IC50"
  experimental-result: "3380 nM"
- molecule: "CC(NC(=O)C(C)(Cc1c[nH]c2ccccc12)NCc1nc2ccccc2[nH]1)c1ccccc1 (stereo not drawn)"
  experimental-target: "Human NK1 Receptor (Homo sapiens, UniProt P25103)"
  quantity-measured: "IC50"
  experimental-result: "> 10000 nM"
- molecule: "CC(NC(=O)C(C)(Cc1c[nH]c2ccccc12)NCc1ccccc1OCc1ccccn1)c1ccccc1 (stereo not drawn)"
  experimental-target: "Human NK1 Receptor (Homo sapiens, UniProt P25103)"
  quantity-measured: "IC50"
  experimental-result: "3180 nM"
- molecule: "COc1ccc2cc(CNC(C)(Cc3c[nH]c4ccccc34)C(=O)NC(C)c3ccccc3)oc2c1 (stereo not drawn)"
  experimental-target: "Human NK1 Receptor (Homo sapiens, UniProt P25103)"
  quantity-measured: "IC50"
  experimental-result: "2100 nM"

Quick check: IC50 of CC(NC(=O)C(C)(Cc1c[nH]c2ccccc12)NCc1ccsc1)c1ccccc1 (stereo not drawn) ?
598 nM

---

Biological target: Human NK1 Receptor (Homo sapiens)
Construct: endogenous in cells; host or cells: Human lymphoma IM9 cells (whole cells)
Assay: In Vitro Human NK1 Receptor Binding Assay ([125I]Bolton-Hunter substance P displacement, IM9 cells)
Conditions: Human lymphoma IM9 cells, [125I]Bolton-Hunter substance P; Table 3, array-synthesis products; read-out: IC50 (nM) hNK1
Experimental: They have been evaluated in an NK1-receptor binding assay which is described below. Human lymphoma IM9 cells were grown in RPMI 1640 culture medium supplemented with 10% fetal calf serum and 2 mM glutamine and maintained under an atmosphere of 5% CO2. […] Filters were washed with 6×1 ml ice-cold Tris HCl (50 mM, pH 7.4) and radioactivity bound determined using a gamma couter. Results were analyzed using iterative curve fitting procedures in RS1 or Graphpad Inplot.
Measured IC50, listed per entry.
# unit: nM | format: bare number

Quick check: IC50 of O=C(NCc1nc2ccccc2[nH]1)C(Cc1c[nH]c2ccccc12)NCc1cc2ccccc2o1 (stereo not shown) ?
3410

Can you check O=C(NCCCc1ccccc1)C(Cc1c[nH]c2ccccc12)NCc1cc2ccccc2o1 (stereo not shown) next?
2380

Can you check CC(Cc1c[nH]c2ccccc12)NC(=O)C(Cc1c[nH]c2ccccc12)NCc1cc2ccccc2o1 (stereo not shown) next?
3610

Can you check O=C(NCc1ccc(F)cc1)C(Cc1c[nH]c2ccccc12)NCc1cc2ccccc2o1 (stereo not shown) next?
12

Can you check O=C(NCc1cccnc1)C(Cc1c[nH]c2ccccc12)NCc1cc2ccccc2o1 (stereo not shown) next?
790

Can you check CCC(NC(=O)C(Cc1c[nH]c2ccccc12)NCc1cc2ccccc2o1)c1cccs1 (stereo not shown) next?
92

Can you check O=C(NCc1cccc(O)c1)C(Cc1c[nH]c2ccccc12)NCc1cc2ccccc2o1 (stereo not shown) next?
731
